All values here come from BindingDB's records for doi:10.7270/Q25T3HZB.

target: Kappa-type opioid receptor (Homo sapiens, UniProt P41145); experiment: KOR antagonists by imaging, SAR follow-up, image-based (AID 2348)
Sequence (P41145 whole entry): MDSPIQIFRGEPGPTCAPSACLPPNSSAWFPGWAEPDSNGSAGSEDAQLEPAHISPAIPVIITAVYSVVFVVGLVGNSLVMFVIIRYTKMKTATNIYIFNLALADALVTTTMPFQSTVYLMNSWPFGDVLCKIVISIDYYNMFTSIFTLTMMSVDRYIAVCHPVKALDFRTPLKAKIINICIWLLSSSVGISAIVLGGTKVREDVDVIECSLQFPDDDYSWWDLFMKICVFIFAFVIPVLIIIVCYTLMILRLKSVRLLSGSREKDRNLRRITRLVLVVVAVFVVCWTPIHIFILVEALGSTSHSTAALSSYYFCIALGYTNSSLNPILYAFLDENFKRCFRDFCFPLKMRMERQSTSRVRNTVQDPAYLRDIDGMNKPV
observedProperty: IC50 (µM)

(a) CCC(N=Nc1ccnc2cc(Cl)ccc12)c1ccc(O)cc1 (configuration not stated)
(b) Oc1ccc(CN=Nc2ccnc3cc(Cl)ccc23)cc1O
Q: API: POST /compare with a and b ; response names the item with higher IC50. Answer format: the label of the selected item.
Ans: b
